Hi there, I'd appreciate the recorded conversion of exogenous saturated fatty acid to Δ9 monounsaturated fatty acid for every entry that follows.
- tested.system: hSCD1 (Homo sapiens, UniProt O00767)
- Sequence (O00767 whole entry): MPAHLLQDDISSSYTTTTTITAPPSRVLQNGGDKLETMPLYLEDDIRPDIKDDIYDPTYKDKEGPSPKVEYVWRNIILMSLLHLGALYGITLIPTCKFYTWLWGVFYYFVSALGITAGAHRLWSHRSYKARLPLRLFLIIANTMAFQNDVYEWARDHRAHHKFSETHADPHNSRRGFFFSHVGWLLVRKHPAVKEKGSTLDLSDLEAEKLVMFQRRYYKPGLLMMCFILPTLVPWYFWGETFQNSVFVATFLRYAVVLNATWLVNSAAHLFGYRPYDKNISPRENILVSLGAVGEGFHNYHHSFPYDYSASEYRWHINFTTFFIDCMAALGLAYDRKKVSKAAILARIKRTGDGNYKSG
- test.details: Conversion of saturated fatty acids to Δ9 monounsaturated fatty acids in ole1 yeast L8-14C expressing hSCD1 (GLC)
- Assay type: cell-based
- Set-up: Cloning of the full-length human and mouse SCD cDNAs: The full coding region of human SCDs; expressed in transfected cells; host or cells: Saccharomyces cerevisiae L8-14C (ole1 disruptant), vector p426GPD
- assay.conditions: exogenous fatty acid 0.2 mM, 1% tergitol NP-40, yeast cultured 2 days (FIG. 2)
Value expressed in %; do not type the unit.

Q: Look up and state reported conversion of exogenous saturated fatty acid to Δ9 monounsaturated fatty acid for CCCCCCCCCCCCC(=O)O [13:0, tridecanoic acid]
Ans: 9

Q: State its conversion of exogenous saturated fatty acid to Δ9 monounsaturated fatty acid for this compound: CCCCCCCCCCCCCCCCC(=O)O [17:0, heptadecanoic acid]
Ans: 35

Q: State its conversion of exogenous saturated fatty acid to Δ9 monounsaturated fatty acid for this compound: CCCCCCCCCCCCCC(=O)O [14:0, myristic acid]
Ans: 18

Cited source: patent US20060281071A1
